# credit: ChEMBL document CHEMBL5143575

- Species: Mus musculus
- test-summary: Inhibition of (Le(a)Le(x))14-BSA conjugate binding to mouse Anti-Le(a) monoclonal antibody SPM 522 assessed as change in free energy preincubated with mAb for 1 hr followed by incubation with immobilized antigen BSA-conjugate for 3 hrs by competitive ELISA relative to control
- experimental-context: time 4.0 hrs
deltaG below 0.5 kcal/mol gives Not satisfied; deltaG at or above it gives Satisfied.

Previously resolved entries follow.
compound	label-class
CCCCCCO[C@@H]1O[C@H](CO)[C@@H](O[C@@H]2O[C@H](CO)[C@H](O)[C@H](O[C@@H]3O[C@H](CO)[C@@H](O)[C@H](O[C@@H]4O[C@H](CO)[C@H](O)[C@H](O)[C@H]4O)[C@H]3NC(C)=O)[C@H]2O)[C@H](O[C@@H]2O[C@@H](C)[C@@H](O)[C@@H](O)[C@@H]2O)[C@H]1NC(C)=O (stereo in doubt)	Satisfied
CO[C@@H]1O[C@H](CO)[C@@H](O[C@@H]2O[C@@H](C)[C@@H](O)[C@@H](O)[C@@H]2O)[C@H](O[C@@H]2O[C@H](CO)[C@H](O)[C@H](O)[C@H]2O)[C@H]1NC(C)=O	Not satisfied
CCCCCCO[C@@H]1O[C@H](CO)[C@@H](O[C@@H]2O[C@H](CO)[C@H](O)[C@H](O[C@@H]3O[C@H](CO)[C@@H](O)[C@H](O[C@@H]4O[C@H](CO)[C@H](O)[C@H](O)[C@H]4O)[C@H]3NC(C)=O)[C@H]2O)[C@H](O)[C@H]1NC(C)=O	Satisfied
CO[C@@H]1O[C@H](CO)[C@H](O)[C@H](O[C@@H]2O[C@H](CO)[C@@H](O)[C@H](O[C@@H]3O[C@H](CO)[C@H](O)[C@H](O)[C@H]3O)[C@H]2NC(C)=O)[C@H]1O	Satisfied

Test whether the compound CCCCCCO[C@@H]1O[C@H](CO)[C@@H](O[C@@H]2O[C@H](CO)[C@H](O)[C@H](O[C@@H]3O[C@H](CO)[C@@H](O[C@@H]4O[C@@H](C)[C@@H](O)[C@@H](O)[C@@H]4O)[C@H](O[C@@H]4O[C@H](CO)[C@H](O)[C@H](O)[C@H]4O)[C@H]3NC(C)=O)[C@H]2O)[C@H](O[C@@H]2O[C@@H](C)[C@@H](O)[C@@H](O)[C@@H]2O)[C@H]1NC(C)=O records deltaG of 0.5 kcal/mol or higher. Not satisfied

---

Reported pIC50 values are given for each entry in this list.
- test-summary: Inhibition of (Le(a)Le(x))14-BSA conjugate binding to mouse Anti-Le(a) monoclonal antibody SPM 522 preincubated with mAb for 1 hr followed by incubation with immobilized antigen BSA-conjugate for 3 hrs by competitive ELISA
Scale: negative log10 of molar concentration, which is what pIC50 denotes.

Worked cases, answers included:
compound	readout-name	endpoint-result
CCCCCCO[C@@H]1O[C@H](CO)[C@@H](O[C@@H]2O[C@H](CO)[C@H](O)[C@H](O[C@@H]3O[C@H](CO)[C@@H](O)[C@H](O[C@@H]4O[C@H](CO)[C@H](O)[C@H](O)[C@H]4O)[C@H]3NC(C)=O)[C@H]2O)[C@H](O[C@@H]2O[C@@H](C)[C@@H](O)[C@@H](O)[C@@H]2O)[C@H]1NC(C)=O (stereo in doubt)	pIC50	2.87
CCCCCCO[C@@H]1O[C@H](CO)[C@@H](O[C@@H]2O[C@H](CO)[C@H](O)[C@H](O[C@@H]3O[C@H](CO)[C@@H](O[C@@H]4O[C@@H](C)[C@@H](O)[C@@H](O)[C@@H]4O)[C@H](O[C@@H]4O[C@H](CO)[C@H](O)[C@H](O)[C@H]4O)[C@H]3NC(C)=O)[C@H]2O)[C@H](O[C@@H]2O[C@@H](C)[C@@H](O)[C@@H](O)[C@@H]2O)[C@H]1NC(C)=O	pIC50	4.64

Could you now look at the following compound, please?
Look up pIC50 for this compound: CCCCCCO[C@@H]1O[C@H](CO)[C@@H](O[C@@H]2O[C@H](CO)[C@H](O)[C@H](O[C@@H]3O[C@H](CO)[C@@H](O)[C@H](O[C@@H]4O[C@H](CO)[C@H](O)[C@H](O)[C@H]4O)[C@H]3NC(C)=O)[C@H]2O)[C@H](O)[C@H]1NC(C)=O 2.92

---

IC50 listing for selected compounds.
- test-summary: Inhibition of (Le(a)Le(x))14-BSA conjugate binding to mouse Anti-Le(a) monoclonal antibody SPM 522 preincubated with mAb for 1 hr followed by incubation with immobilized antigen BSA-conjugate for 3 hrs by competitive ELISA
Write the answer as a number in mM, unit excluded.

item-smiles	IC50 / mM
CO[C@@H]1O[C@H](CO)[C@@H](O[C@@H]2O[C@@H](C)[C@H](O)[C@@H](O)[C@H]2O)[C@H](O[C@@H]2O[C@H](CO)[C@H](O)[C@H](O)[C@H]2O)[C@H]1NC(C)=O	7.02
CO[C@@H]1O[C@H](CO)[C@H](O)[C@H](O[C@@H]2O[C@H](CO)[C@@H](O)[C@H](O[C@@H]3O[C@H](CO)[C@H](O)[C@H](O)[C@H]3O)[C@H]2NC(C)=O)[C@H]1O	0.538

Given the entry CO[C@@H]1O[C@H](CO)[C@@H](O[C@@H]2O[C@@H](C)[C@@H](O)[C@@H](O)[C@@H]2O)[C@H](O[C@@H]2O[C@H](CO)[C@H](O)[C@H](O)[C@H]2O)[C@H]1NC(C)=O , report its measured IC50. 3.09
